All values here come from the supplement of paper PMC6555819.

test system: THRa homodimer (NR concentration 90 nM); test: PBM binding z-score (relative to random genomic background probes); higher = stronger binding; sequences stand for … in GC…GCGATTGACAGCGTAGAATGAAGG
value-type: PBM binding z-score

See these solved cases before continuing.
sequence-record | PBM binding z-score
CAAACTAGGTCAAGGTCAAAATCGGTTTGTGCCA | 3.13
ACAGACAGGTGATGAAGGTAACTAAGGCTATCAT | 0.245
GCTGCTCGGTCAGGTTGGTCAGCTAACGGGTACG | -0.287
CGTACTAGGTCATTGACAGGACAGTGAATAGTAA | 0.971
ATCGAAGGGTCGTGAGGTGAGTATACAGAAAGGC | 1.51

As a next step, examine the sequence that follows.
Notebook: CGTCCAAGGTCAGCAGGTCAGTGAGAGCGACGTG , PBM binding z-score read as 2.56
